Let's look at some compounds and their measured inhibition.
measuredOn: Inhibitor of nuclear factor kappa-B kinase subunit beta (Homo sapiens)
testContext: at 0.1 µM;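 note: values are mean percent inhibition of IKKB, part of the GSK PKIS screening data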
Provide the reading as a plain figure in %.

# count of solved cases: 5
INSERT INTO assay_data (molecularstring, measuredon, measuredvalue) VALUES
  ('Nc1nccc(-c2c(-c3ccc(F)cc3)ncn2CCCN2CCOCC2)n1', 'Inhibitor of nuclear factor kappa-B kinase subunit beta (Homo sapiens)', 6.3),
  ('c1ccc(Nc2ncc(-c3ccccc3)o2)cc1', 'Inhibitor of nuclear factor kappa-B kinase subunit beta (Homo sapiens)', 5.92),
  ('O=C1Nc2ccccc2/C1=C/Nc1ccc2[nH]c(=O)[nH]c2c1', 'Inhibitor of nuclear factor kappa-B kinase subunit beta (Homo sapiens)', 7.85),
  ('Nc1nccc(-c2c(-c3ccc(F)cc3)nn3cc(C(F)(F)F)ccc23)n1', 'Inhibitor of nuclear factor kappa-B kinase subunit beta (Homo sapiens)', 1.03),
  ('CCOc1nccc2c1nc(-c1nonc1N)n2CC', 'Inhibitor of nuclear factor kappa-B kinase subunit beta (Homo sapiens)', 0.86);

Attention now shifts to the item below.
Input: For the compound "O=C(Nc1ccc(Oc2ccc3[nH]c(NC(=O)c4ccco4)nc3c2)cc1)Nc1cc(C(F)(F)F)ccc1F" , what inhibition is on record?
Output: -0.61
